target_desc: Amine oxidase [flavin-containing] B (Rattus norvegicus, UniProt P19643)
protocol_summary: Compound was evaluated for the time-dependence inhibition of MAO-B at 20 minutes pre-incubation periods
experimental_readout: IC50
Could you write the number and then its unit?

molecular_string: N#CCCn1nc(-c2ccc(OCc3ccccc3)cc2)oc1=O
IC50: 2.7 nM
--
molecular_string: N#CCCn1nc(-c2ccc(OCc3ccccc3)cc2)oc1=S
IC50: 6.6 nM

IN: Find the recorded IC50 belonging to O=c1oc(-c2ccc(OCc3ccccc3)cc2)nn1CCO and report it.
OUT: 4.6 nM

---

target_desc: Amine oxidase [flavin-containing] B (Rattus norvegicus)
Sequence (P19643 whole entry): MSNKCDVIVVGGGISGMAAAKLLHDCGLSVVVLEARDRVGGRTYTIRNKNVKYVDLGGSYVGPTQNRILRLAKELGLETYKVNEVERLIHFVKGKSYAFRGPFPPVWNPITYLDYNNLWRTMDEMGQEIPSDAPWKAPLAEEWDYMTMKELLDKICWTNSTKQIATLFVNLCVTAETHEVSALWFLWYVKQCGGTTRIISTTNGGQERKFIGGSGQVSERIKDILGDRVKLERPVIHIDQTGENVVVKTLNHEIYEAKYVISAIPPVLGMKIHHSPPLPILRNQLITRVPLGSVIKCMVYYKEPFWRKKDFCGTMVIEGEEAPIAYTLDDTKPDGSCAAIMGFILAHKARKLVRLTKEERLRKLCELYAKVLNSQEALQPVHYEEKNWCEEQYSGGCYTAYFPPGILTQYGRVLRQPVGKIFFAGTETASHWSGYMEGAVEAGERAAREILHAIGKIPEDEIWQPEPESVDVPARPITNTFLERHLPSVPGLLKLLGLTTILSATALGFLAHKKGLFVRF
protocol_summary: Ex-Vivo percentage inhibition of MAO-B after 24 hr single 5 mg/kg dose by oral gavage
Assay type: organism-based
Parameters: dose 5 mg/kg, route oral
// inhibition at 5 mg/kg lookup, one value per entry
Number in %, nothing else.

IN: Find the recorded inhibition at 5 mg/kg belonging to O=c1oc(-c2ccc(OCc3ccccc3)cc2)nn1CCO and report it.
OUT: 8

---

target_desc: Amine oxidase [flavin-containing] B (Rattus norvegicus, UniProt P19643)
protocol_summary: Ex-Vivo Time course of evaluation for the percentage inhibition of MAO-B for 1 hr at single dose 5 mg/kg through oral gavage (p<0.001)
Assay type: organism-based
Set-up: dose 5 mg/kg, route oral
experimental_readout: inhibition at 5 mg/kg (%)
Number in %, nothing else.

// solved cases for inhibition at 5 mg/kg follow
molecular_string: N#CCCn1nc(-c2ccc(OCc3ccccc3)cc2)oc1=O
inhibition at 5 mg/kg / %: 87

molecular_string: N#CCCn1nc(-c2ccc(OCc3ccc(Cl)cc3)cc2)oc1=O
inhibition at 5 mg/kg / %: 54

molecular_string: N#CCCn1nc(-c2ccc(OCc3cccc(Cl)c3)cc2)oc1=O
inhibition at 5 mg/kg / %: 36

Next item in the queue.
IN: Find the recorded inhibition at 5 mg/kg belonging to Cc1ccc(COc2ccc(-c3nn(CCC#N)c(=O)o3)cc2)cc1 and report it.
OUT: 22

---

// inhibition at 5 mg/kg lookup, one value per entry
target_desc: Amine oxidase [flavin-containing] B (Rattus norvegicus, UniProt P19643)
protocol_summary: Ex-Vivo Time course of evaluation for the percentage inhibition of MAO-B for 1 hr at single dose 5 mg/kg through oral gavage
Type: organism-based
Parameters: dose 5 mg/kg, route oral
Number in %, nothing else.

molecular_string: N#CCCn1nc(-c2ccc(OCc3ccccc3)cc2)sc1=S
value_unit: %
observed_measurement: 18

molecular_string: Cc1cccc(COc2ccc(-c3nn(CCC#N)c(=O)o3)cc2)c1
value_unit: %
observed_measurement: 16

molecular_string: N#CCCn1nc(-c2ccc(OCc3ccccc3)cc2)sc1=O
value_unit: %
observed_measurement: 52

molecular_string: N#CCCN1N=C(c2ccc(OCc3ccccc3)cc2)OCC1=S
value_unit: %
observed_measurement: 3

molecular_string: O=c1oc(-c2ccc(OCc3ccccc3)cc2)nn1CCO
value_unit: %
observed_measurement: 82

IN: Find the recorded inhibition at 5 mg/kg belonging to N#CCCn1nc(-c2ccc(OCc3ccccc3)cc2)oc1=S and report it.
OUT: 84

IN: Same lookup for N#CCCN1N=C(c2ccc(OCc3ccccc3)cc2)OCC1=O , please.
OUT: 31
